assay procedure: Pharmacokinetics in mice
Format: in vivo, BALB/c hairy mice
assay setup: both sexes, BALB/c hairy, mouse, plasma, PO 100 mg/kg, 24.6 h, read-out: Plasma Conc.
property label: concentration at 24.6 h (ng/mL)
Response body: numeric value in ng/mL, unit text excluded.

Prompt: Which concentration at 24.6 h is listed for Cc1cnc(N[C@H]2CC[C@H](N)CC2)nc1-c1cnc2ccc(-c3ccccc3)cn12 [CDDD11-8] ?
Response: 74

----------
assay procedure: Pharmacokinetics in mice
Type: in vivo, BALB/c hairy mice
assay setup: both sexes, BALB/c hairy, mouse, plasma, IV 2 mg/kg, 8.8 h, read-out: Plasma Conc.
property label: concentration at 8.8 h (ng/mL)
Response body: numeric value in ng/mL, unit text excluded.

Prompt: Which concentration at 8.8 h is listed for `Cc1cnc(N[C@H]2CC[C@H](N)CC2)nc1-c1cnc2ccc(-c3ccccc3)cn12` ?
Response: 2

----------
measured on: CDK6D3 (Homo sapiens, UniProt Q00534)
Sequence (Q00534 whole entry): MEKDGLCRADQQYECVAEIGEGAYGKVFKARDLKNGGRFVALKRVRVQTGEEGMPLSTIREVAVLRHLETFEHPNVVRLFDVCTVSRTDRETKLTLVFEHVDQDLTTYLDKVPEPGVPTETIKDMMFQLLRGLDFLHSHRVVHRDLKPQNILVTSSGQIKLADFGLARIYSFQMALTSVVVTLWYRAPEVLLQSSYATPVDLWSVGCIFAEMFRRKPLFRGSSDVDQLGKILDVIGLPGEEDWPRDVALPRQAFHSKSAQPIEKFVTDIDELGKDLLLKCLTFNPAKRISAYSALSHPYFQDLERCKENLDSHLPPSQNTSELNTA
Sequence (P30281 whole entry partner): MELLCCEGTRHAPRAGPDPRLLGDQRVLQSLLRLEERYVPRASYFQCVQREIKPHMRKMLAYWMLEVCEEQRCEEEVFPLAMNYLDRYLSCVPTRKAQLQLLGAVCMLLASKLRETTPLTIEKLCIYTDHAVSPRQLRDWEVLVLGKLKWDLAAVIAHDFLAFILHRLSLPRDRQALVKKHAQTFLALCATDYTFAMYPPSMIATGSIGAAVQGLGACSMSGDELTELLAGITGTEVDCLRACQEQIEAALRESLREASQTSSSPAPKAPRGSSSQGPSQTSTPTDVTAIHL
pKi: −log10 of the molar value.
property label: pKi

Prompt: Which pKi is listed for Cc1cnc(N[C@H]2CC[C@H](N)CC2)nc1-c1cnc2ccc(-c3ccccc3)cn12 [CDDD11-8] ?
Response: < 6.00

----------
assay procedure: Pharmacokinetics in mice
Assay type: in vivo, BALB/c hairy mice
assay setup: both sexes, BALB/c hairy, mouse, plasma, oral 100 mg/kg, ± standard error of the estimate
property label: Tmax (h)
Response body: numeric value in h, unit text excluded.

Prompt: Which Tmax is listed for `Cc1cnc(N[C@H]2CC[C@H](N)CC2)nc1-c1cnc2ccc(-c3ccccc3)cn12` ?
Response: 2

----------
assay procedure: Pharmacokinetics in mice
Format: in vivo, BALB/c hairy mice
assay setup: both sexes, BALB/c hairy, mouse, plasma, IV 2 mg/kg, 0.30 h, read-out: Plasma Conc.
property label: concentration at 0.3 h
Form entry: enter the amount, then its unit.

Prompt: Which concentration at 0.3 h is listed for `Cc1cnc(N[C@H]2CC[C@H](N)CC2)nc1-c1cnc2ccc(-c3ccccc3)cn12` ?
Response: 781 ng/mL

----------
assay procedure: Pharmacokinetics in mice
Assay type: in vivo, BALB/c hairy mice
assay setup: both sexes, BALB/c hairy, mouse, plasma, IV 2 mg/kg, 8 h, read-out: Plasma Conc.
property label: concentration at 8 h (ng/mL)
Response body: numeric value in ng/mL, unit text excluded.

Prompt: Which concentration at 8 h is listed for `Cc1cnc(N[C@H]2CC[C@H](N)CC2)nc1-c1cnc2ccc(-c3ccccc3)cn12` ?
Response: 2.8

----------
measured on: CDK1B (Homo sapiens, UniProt P06493)
Sequence (P06493 whole entry): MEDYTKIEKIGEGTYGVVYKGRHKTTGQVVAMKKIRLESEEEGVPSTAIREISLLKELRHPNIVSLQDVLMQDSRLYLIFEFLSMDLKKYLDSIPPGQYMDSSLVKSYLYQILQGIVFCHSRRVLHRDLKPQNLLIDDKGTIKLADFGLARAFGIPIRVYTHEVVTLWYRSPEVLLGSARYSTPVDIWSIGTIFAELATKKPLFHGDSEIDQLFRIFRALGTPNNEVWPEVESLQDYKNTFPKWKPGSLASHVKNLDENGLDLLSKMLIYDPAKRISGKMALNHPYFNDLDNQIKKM
Sequence (P14635 whole entry partner): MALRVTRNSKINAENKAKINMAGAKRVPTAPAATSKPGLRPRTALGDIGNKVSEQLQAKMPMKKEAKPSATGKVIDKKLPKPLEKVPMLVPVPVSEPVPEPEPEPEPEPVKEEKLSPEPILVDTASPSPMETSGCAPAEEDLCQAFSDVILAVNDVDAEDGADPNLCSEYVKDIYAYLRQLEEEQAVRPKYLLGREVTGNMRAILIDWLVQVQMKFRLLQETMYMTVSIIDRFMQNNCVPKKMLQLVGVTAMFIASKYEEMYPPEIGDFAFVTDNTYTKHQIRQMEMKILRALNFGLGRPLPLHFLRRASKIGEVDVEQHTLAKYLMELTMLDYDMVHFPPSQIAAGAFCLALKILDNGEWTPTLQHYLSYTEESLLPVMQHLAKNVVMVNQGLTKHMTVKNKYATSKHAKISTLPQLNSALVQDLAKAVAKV
property label: Ki

Prompt: Which Ki is listed for `Cc1cnc(N[C@H]2CC[C@H](N)CC2)nc1-c1cnc2ccc(-c3ccccc3)cn12` ?
Response: > 1000 nM

----------
assay procedure: Caco-2 permeability
Format: in vitro ADME
assay setup: human, Caco-2; B-A
property label: Papp B→A (×10⁻⁶ cm/s)
Response body: numeric value in ×10⁻⁶ cm/s, unit text excluded.

Prompt: Which Papp B→A is listed for Cc1cnc(N[C@H]2CC[C@H](N)CC2)nc1-c1cnc2ccc(-c3ccccc3)cn12 [CDDD11-8] ?
Response: 29.5

----------
assay procedure: Pharmacokinetics in mice
Type: in vivo, BALB/c hairy mice
assay setup: both sexes, BALB/c hairy, mouse, plasma, IV 2 mg/kg, 6 h, read-out: Plasma Conc.
property label: concentration at 6 h (ng/mL)
Response body: numeric value in ng/mL, unit text excluded.

Prompt: Which concentration at 6 h is listed for Cc1cnc(N[C@H]2CC[C@H](N)CC2)nc1-c1cnc2ccc(-c3ccccc3)cn12 [CDDD11-8] ?
Response: 3.2
